Parameter: GI50. Scope: all listed entries.
# Test system: SN12C
# TEST DETAILS: NCI tumour cell line growth inhibition, 48 h
Calls of active or inactive are those of the source. Rule as the data show it: active = GI50 up to about 1.1 µM and inactive = higher.
RECORDED METRIC: GI50

                                    compound               result
 0         COc1ccc(/C=C(\Cl)c2ccc(OC)cc2)cc1  > 100 µM (inactive)
 1  O=C(O)CCC(NC(=O)c1ccc(OCc2nc3cc(C(F)(F)F)ccc3nc2-c2ccccc2)cc1)C(=O)O (stereo unspecified)  > 100 µM (inactive)
 2  Cn1c2ccc3cc2c(=S)c2cc(ccc21)OCCOCCOCCOCCOCCOCCO3   > 10 µM (inactive)
 3                        Cc1nc(Cl)nc(Cl)c1C  > 100 µM (inactive)
 4        O=C(O)c1cc(=O)c2c([nH]c3ccccc32)s1  > 100 µM (inactive)
 5        COC(=O)c1cc2c3ccccc3n(C(C)=O)c2cn1  > 100 µM (inactive)
 6  C=C1CC2CC(=O)C(O)C(C1)C2 (stereo unspecified)  > 100 µM (inactive)
 7  O=C1CSC2=NC3=C(COC/C3=C\c3ccc(Br)cc3)C(c3ccc(Br)cc3)N12 (stereo unspecified)  > 100 µM (inactive)
 8          O=S(=O)(SC1=NCCN1)c1ccc2ccccc2c1   24.4 µM (inactive)
 9  C=CCOc1ccccc1/N=N/C(C#N)=N\Nc1ccccc1OCC=C  > 100 µM (inactive)
10  CC(C)(C)[Si](C)(C)OCCc1ccccc1C1CC2(S(=O)(=O)c3ccccc3)ON1CC2S(=O)(=O)c1ccccc1 (stereo unspecified)  > 100 µM (inactive)

###

# Tested on: DLD-1
# TEST DETAILS: NCI tumour cell line growth inhibition, 48 h
The source made the active and inactive calls. No stated cut-off is given here; in the data, active = GI50 up to about 1.1 µM and inactive = higher.
Outcomes: 1 (active), 0 (inactive)

MOLECULE	SYSTEM TESTED	QUALITATIVE LABEL
CCOCC(=O)N[C@H]1CCc2cc(OC)c(OC)c(OC)c2-c2ccc(OC)c(=O)cc21	DLD-1	1
Cc1ccc([N+](=O)[O-])cc1NC(=O)c1cccc([N+](=O)[O-])c1O	DLD-1	0
Cc1ccccc1OCC(COC(=O)Nc1ccccc1)OC(=O)Nc1ccccc1 (configuration not stated)	DLD-1	0
O=C1C=CC(=O)N1Nc1ccc([N+](=O)[O-])cc1[N+](=O)[O-]	DLD-1	0
O=C(NC1=C(Cl)C(=O)c2ccccc2C1=O)C(=O)C(C(=O)c1ccc2ccccc2c1)C1OC(=O)c2ccccc21 (configuration not stated)	DLD-1	0
COc1cc([C@@H]2c3cc4c(c(O[C@@H]5O[C@H]6CO[C@@H](C)O[C@H]6[C@H](O)[C@@H]5O)c3C[C@H]3COC(=O)[C@@H]32)OCO4)cc(OC)c1O	DLD-1	0
COC1C(O)CC(OC2CC(Oc3cc4cc5c(c(O)c4c(O)c3C)C(=O)[C@@H](OC3CC(OC4CC(OC6CC(C)(O)C(OC(C)=O)C(C)O6)C(O)C(C)O4)C(O)C(C)O3)[C@H]([C@H](OC)C(=O)[C@@H](O)[C@@H](C)O)C5)OC(C)C2OC(C)=O)OC1C (some centres not stated)	DLD-1	1
CC1(CO)C(=O)OC12CCCCC2 (configuration not stated)	DLD-1	0
C1CCN(c2nsc(N3CCCCC3)n2)CC1	DLD-1	0
Cc1c2c(cc3c1[nH]c1ccccc13)C(c1ccc(F)cc1)=NCC2	DLD-1	1
CC1=C[C@]2(CC(C)C3C(CC4(C)C5CCC6C(C)(C)C(=O)CC[C@@]67C[C@@]57CC[C@]34C)O2)OC1=O (some centres not stated)	DLD-1	0
O=C(COc1ccc(Cl)cc1)N1N=C(c2ccc(Cl)cc2)CC1(O)c1ccccc1 (configuration not stated)	DLD-1	0
CC1=C2C(=O)C3[C@@H](CCC4=CC(=O)CC[C@@]43C)C2CC[C@]12O[C@@H]1C[C@H](C)CN[C@H]1[C@H]2C (some centres not stated)	DLD-1	0
COC(=O)CCC1CCc2c(OC)ccc(O)c2C1=O (configuration not stated)	DLD-1	0
C[N+]1=c2c3cccc4cccc(c(=O)n2CC1)c43	DLD-1	0
CC(=O)NC(CCCN)C(=O)NCc1ccccc1 (configuration not stated)	DLD-1	0
CC1=NN(C(=O)c2cc(Cl)cc([N+](=O)[O-])c2)C(=O)C1/N=N/c1ccccc1C(=O)O (configuration not stated)	DLD-1	0

###

# Test system: U-251
# TEST DETAILS: NCI tumour cell line growth inhibition, 48 h
Active and inactive are the calls of the source. Cut-off read from the data, not from the text of the source: active = GI50 up to about 1.1 µM and inactive = higher.
Outcomes: active, inactive

>>> df
                                    compound  system_tested  qualitative_label
 0  Cc1cccc(N2C(=O)C3ON(C(C(N)=O)c4ccccc4)C(c4c5ccccc5c(Cl)c5ccccc45)C3C2=O)c1C (configuration not stated)          U-251           inactive
 1  Clc1ccc(OCc2nnc3sc(-c4ccc(-c5ccc(Cl)cc5Cl)o4)nn23)cc1          U-251           inactive
 2  N#Cc1ccc(C2OCC3CC=CCC3CO2)cc1 (configuration not stated)          U-251           inactive
 3  COC(=O)C1Cc2cc3c(cc2C1=O)CCCC3 (configuration not stated)          U-251           inactive
 4  CCOC(=O)/C(C#N)=N\Nc1ccc(-n2c(C)nc3ccccc3c2=O)cc1          U-251           inactive
 5  Cc1[nH]c(-c2ccccc2)c(O)c1C(=O)OC12CC3CC(CC(C3)C1)C2          U-251           inactive
 6  O=C(/C=C/c1cccc([N+](=O)[O-])c1)c1ccc([N+](=O)[O-])cc1          U-251           inactive
 7  CC1=CC2c3cccc4[nH]cc(c34)CC2N(C)C1 (configuration not stated)          U-251           inactive
 8   CN(C)CCNC(=O)c1cccc2c1C(=O)c1ccccc1C2=O          U-251           inactive
 9    Cc1ccc2c(c1)c1ccc3c(c1n2C)C(=O)C=CC3=O          U-251           inactive
10    Cn1c(=O)c(NC(=O)C(Cl)(Cl)Cl)nc2ccccc21          U-251           inactive
11  O=C1C2=C(c3ccccc31)C(c1cccc(Cl)c1)NC(S)=N2 (configuration not stated)          U-251           inactive
12  CC1=C2C(=O)C3[C@@H](CCC4=CC(=O)CC[C@@]43C)C2CC[C@]12O[C@@H]1C[C@H](C)CN[C@H]1[C@H]2C (some centres not stated)          U-251           inactive
13  CN(C)c1nc(NC23CC4CC(CC(C4)C2)C3)nc(N(C)C)n1          U-251           inactive
14  CCCCCCCCCCCCCC(=O)OCC1OC(=O)C(O)C1O (configuration not stated)          U-251           inactive
15  COc1cc([C@H]2CC(=O)C[C@@H](c3cc(OC)c(OC)c(OC)c3)C23C(=O)c2ccccc2C3=O)cc(OC)c1OC          U-251           inactive
16  CN(C)C(=O)Oc1ccc(-c2cn3cc(NC(=O)c4ccccc4)ccc3n2)cc1          U-251           inactive
17   CC(C)n1c2c(c3ccccc3c1=O)C(=O)c1ccccc1-2          U-251           inactive
18  COc1cc2c(cc1OC)[C@@H](Nc1ccc(F)cc1)C1COC(=O)[C@@H]1C2c1cc(OC)c(O)c(OC)c1 (some centres not stated)          U-251             active
19  O=Cc1cc(O)c(O)c(O)c1-c1c(C=O)cc(O)c(O)c1O          U-251           inactive
20  Nc1nnc2nc(CC(=O)/C=C/c3ccccc3)c(=O)[nH]n12          U-251           inactive
21  C[n+]1c2ccccc2c(C(=O)NC(CCCNC(=N)N)C(=O)O)c2ccccc21 (configuration not stated)          U-251           inactive

###

# Tested on: M19-MEL
# TEST DETAILS: NCI tumour cell line growth inhibition, 48 h
Calls of active or inactive are those of the source. No stated cut-off is given here; in the data, active = GI50 up to about 1.1 µM and inactive = higher.

COMPOUND	GI50
O=Cc1cc(O)c(O)c(O)c1-c1c(C=O)cc(O)c(O)c1O	> 100 µM (inactive)
CC1OC(OC2C(OC(=O)[C@]34CCC(C)(C)CC3C3=CCC5[C@@]6(C)C[C@H](O)[C@H](OC7OC(CO)C(O)C(O)C7N)[C@@](C)(C(=O)O)C6CC[C@@]5(C)C3(C)CC4)OCC(O)C2O)C(O)C(O)C1OC1OCC(O)C(O)C1O (stereo partly drawn)	> 100 µM (inactive)
CCOC(=O)CN(Cc1ccccc1)Cc1c(C(=O)c2ccccc2)c2ccccc2n1C(=O)c1ccccc1	> 100 µM (inactive)
COc1ccc2c(c1)c(=O)c1c(NCCCN(C)C)ccc3ncn2c31	9.08 µM (inactive)
Nc1nc2ncn(CC(O)COC(=O)c3ccccc3)c2c(=O)[nH]1 (stereo not drawn)	> 100 µM (inactive)
CCOC(=O)CCc1c(C)c2c(OC(C)=O)cc(OC(C)=O)cc2oc1=O	61.9 µM (inactive)
c1ccc2c(NCCCCCCCCNc3c4ccccc4nc4ccccc34)c3ccccc3nc2c1	1.08 µM (active)
N#CC(N)(C(=O)C(=O)NCCCNC(=O)C(=O)C(N)(C#N)c1ccc(Cl)cc1)c1ccc(Cl)cc1 (stereo not drawn)	> 100 µM (inactive)
